# ASSAYED TARGET: Proteasome subunit beta type-5 (Mus musculus)
# Sequence (O55234 whole entry): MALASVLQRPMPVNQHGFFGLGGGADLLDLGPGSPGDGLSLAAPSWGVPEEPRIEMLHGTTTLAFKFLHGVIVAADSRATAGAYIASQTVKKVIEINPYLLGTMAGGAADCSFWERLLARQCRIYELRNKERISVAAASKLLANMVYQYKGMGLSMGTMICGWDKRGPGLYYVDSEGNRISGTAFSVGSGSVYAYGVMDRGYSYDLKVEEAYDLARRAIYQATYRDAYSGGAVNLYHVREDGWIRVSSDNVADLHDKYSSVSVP
# RUN DESCRIPTION: Inhibition of 20S proteosome beta 5 in mouse A20 cells by ELISA
Known pIC50 of a selection of compounds
Quick note: pIC50 means taking -log10 of the concentration in moles per liter.

In [3]: df
Out[3]:
                              sample_smiles                            assayed_target  quantitative_readout
0  COc1ccc(C[C@H](NC(=O)[C@H](C)NC(=O)CN2CCOCC2)C(=O)N[C@@H](CC2=CCCC2)C(=O)[C@@]2(C)CO2)cc1  Proteasome subunit beta type-5 (Mus musculus)                  6.16
1  COc1ccc(C[C@H](NC(=O)[C@@H](C)NC(=O)[C@H]2CC[C@H](O)CC2)C(=O)N[C@@H](Cc2ccccc2)C(=O)[C@@]2(C)CO2)cc1  Proteasome subunit beta type-5 (Mus musculus)                  6.29

[Q] // fetch pIC50 given entry COc1ccc(C[C@H](NC(=O)[C@@H](C)NC(=O)C2=C(C)c3ccccc3C2)C(=O)N[C@@H](Cc2ccccc2)C(=O)[C@@]2(C)CO2)cc1
[A] 5.63

---

Known log10(IC50) of a selection of compounds
# ASSAYED TARGET: Proteasome subunit beta type-8 (Mus musculus)
# Sequence (P28063 whole entry): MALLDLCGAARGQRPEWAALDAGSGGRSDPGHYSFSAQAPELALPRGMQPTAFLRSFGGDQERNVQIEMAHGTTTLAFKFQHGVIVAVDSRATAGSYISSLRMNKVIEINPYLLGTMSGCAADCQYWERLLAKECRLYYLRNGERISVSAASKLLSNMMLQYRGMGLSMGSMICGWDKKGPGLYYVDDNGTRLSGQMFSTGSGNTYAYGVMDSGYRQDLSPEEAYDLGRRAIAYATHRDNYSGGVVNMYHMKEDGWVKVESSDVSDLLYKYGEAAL
# RUN DESCRIPTION: Inhibition of LMP7 in mouse A20 cells by ELISA
The base-10 logarithm of IC50, taken with IC50 in nM, is what appears here.

Use these answered entries as a reference point.
In [3]: df
Out[3]:
                              sample_smiles  quantitative_readout
0  CC(C)C[C@H](NC(=O)CN1CCCCCC1)C(=O)N[C@@H](Cc1ccccc1)C(=O)N[C@@H](Cc1ccccc1)C(=O)[C@@]1(C)CO1                  1.75
1  CC1=C(C(=O)N[C@H](C)C(=O)N[C@@H](Cc2c[nH]c3ccccc23)C(=O)N[C@@H](Cc2ccccc2)C(=O)[C@@]2(C)CO2)Cc2ccccc21                  2.76
2  COc1ccc(C[C@H](NC(=O)[C@@H](C)NC(=O)[C@H]2CC[C@H](O)CC2)C(=O)N[C@@H](Cc2ccccc2)C(=O)[C@@]2(C)CO2)cc1                  2.42
3  COc1ccc(C[C@H](NC(=O)[C@@H](C)NC(=O)[C@H]2CC[C@H](O)CC2)C(=O)N[C@@H](CC2=CCCC2)C(=O)[C@@]2(C)CO2)cc1                  2.57
4  Cc1ccc(CC[C@H](NC(=O)[C@H](Cc2ccccc2)NC(=O)[C@H](CC(C)C)NC(=O)CN2CCCCCC2)C(=O)[C@@]2(C)CO2)cc1                  3.28

Next, consider the following compound.
[Q] // fetch log10(IC50) given entry COc1ccc(C[C@H](NC(=O)[C@@H](C)NC(=O)C2CCCCC2)C(=O)N[C@@H](Cc2ccccc2)C(=O)[C@@]2(C)CO2)cc1
[A] 2.15

---

# ASSAYED TARGET: Proteasome subunit beta type-5 (Mus musculus)
# RUN DESCRIPTION: Inhibition of 20S proteosome beta 5 in mouse A20 cells by ELISA
Known pIC50 of a selection of compounds
Quick note: pIC50 means taking -log10 of the concentration in moles per liter.

>>> df
                              sample_smiles  metric  quantitative_readout
0  Cc1ccc(CC[C@H](NC(=O)[C@H](Cc2ccccc2)NC(=O)[C@H](CC(C)C)NC(=O)CN2CCCCCC2)C(=O)[C@@]2(C)CO2)cc1   pIC50                  6.42
1  COc1ccc(C[C@H](NC(=O)[C@H](C)NC(=O)CN2CCOCC2)C(=O)N[C@@H](Cc2ccccc2)C(=O)[C@@]2(C)CO2)cc1   pIC50                  6.40

Next, consider the following compound.
[Q] Write down measured pIC50 (Proteasome subunit beta type-5 (Mus musculus)) for this compound. CC1=C(C(=O)N[C@H](C)C(=O)N[C@@H](Cc2c[nH]c3ccccc23)C(=O)N[C@@H](Cc2ccccc2)C(=O)[C@@]2(C)CO2)Cc2ccccc21
[A] 5.87

---

# ASSAYED TARGET: Proteasome subunit beta type-8 (Homo sapiens, UniProt P28062)
# Sequence (P28062 whole entry): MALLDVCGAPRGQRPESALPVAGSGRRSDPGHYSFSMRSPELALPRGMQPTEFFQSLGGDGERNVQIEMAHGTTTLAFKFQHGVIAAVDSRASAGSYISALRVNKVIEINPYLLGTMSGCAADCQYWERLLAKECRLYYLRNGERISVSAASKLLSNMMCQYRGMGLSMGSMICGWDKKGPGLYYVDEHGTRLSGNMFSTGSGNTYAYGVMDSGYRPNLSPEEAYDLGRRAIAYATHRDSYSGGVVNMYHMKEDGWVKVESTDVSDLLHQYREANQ
# RUN DESCRIPTION: Inhibition of LMP7 in human MOLT4 cells by ELISA
Known log10 IC50 of a selection of compounds
The base-10 logarithm of IC50, taken with IC50 in nM, is what appears here.

>>> df
                              sample_smiles      metric  quantitative_readout
0  CC1=C(C(=O)N[C@H](C)C(=O)N[C@@H](Cc2c[nH]c3ccccc23)C(=O)N[C@@H](Cc2ccccc2)C(=O)[C@@]2(C)CO2)Cc2ccccc21  log10 IC50                  1.59
1  COc1ccc(C[C@H](NC(=O)[C@@H](C)NC(=O)[C@H]2CC[C@H](O)CC2)C(=O)N[C@@H](Cc2ccccc2)C(=O)[C@@]2(C)CO2)cc1  log10 IC50                  1.36
2  Cc1ccc(CC[C@H](NC(=O)[C@H](Cc2ccccc2)NC(=O)[C@H](CC(C)C)NC(=O)CN2CCCCCC2)C(=O)[C@@]2(C)CO2)cc1  log10 IC50                  2.54
3  COc1ccc([C@@H](O)[C@H](NC(=O)[C@H](C)NC(=O)CN2CCOCC2)C(=O)N[C@@H](CC2=CCCC2)C(=O)[C@@]2(C)CO2)cc1  log10 IC50                  1.59
4  CC(C)C[C@H](NC(=O)CN1CCCCCC1)C(=O)N[C@@H](Cc1ccccc1)C(=O)N[C@@H](Cc1ccccc1)C(=O)[C@@]1(C)CO1  log10 IC50                  1.69
5  COc1ccc(C[C@H](NC(=O)[C@@H](C)NC(=O)C2=C(C)c3ccccc3C2)C(=O)N[C@@H](Cc2ccccc2)C(=O)[C@@]2(C)CO2)cc1  log10 IC50                  1.88

Next, consider the following compound.
[Q] // fetch log10 IC50 given entry CC1=C(C(=O)N[C@@H](C)C(=O)N[C@@H](Cc2c[nH]c3ccccc23)C(=O)N[C@@H](Cc2ccccc2)C(=O)[C@@]2(C)CO2)Cc2ccccc21
[A] 1.58

---

Known log10 of IC50 of a selection of molecules
# ASSAYED TARGET: Proteasome Macropain subunit MB1 (Homo sapiens)
# Sequence (P28074 whole entry): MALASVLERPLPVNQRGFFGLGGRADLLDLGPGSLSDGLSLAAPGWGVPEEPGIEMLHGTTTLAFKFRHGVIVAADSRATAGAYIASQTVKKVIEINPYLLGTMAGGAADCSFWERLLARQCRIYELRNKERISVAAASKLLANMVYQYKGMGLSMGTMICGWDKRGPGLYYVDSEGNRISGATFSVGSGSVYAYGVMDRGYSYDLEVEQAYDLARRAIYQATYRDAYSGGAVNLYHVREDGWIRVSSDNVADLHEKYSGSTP
# RUN DESCRIPTION: Inhibition of 20S proteosome beta 5 in human MOLT4 cells by ELISA
The base-10 logarithm of IC50, taken with IC50 in nM, is what appears here.

>>> print(df.to_string())
                              sample_smiles  quantitative_readout
0  COc1ccc(C[C@H](NC(=O)[C@@H](C)NC(=O)[C@H]2CC[C@H](O)CC2)C(=O)N[C@@H](CC2=CCCC2)C(=O)[C@@]2(C)CO2)cc1                  3.43
1  COc1ccc(C[C@H](NC(=O)[C@@H](C)NC(=O)C2=C(C)c3ccccc3C2)C(=O)N[C@@H](Cc2ccccc2)C(=O)[C@@]2(C)CO2)cc1                  3.56
2  COc1ccc(C[C@H](NC(=O)[C@@H](C)NC(=O)[C@H]2CC[C@H](O)CC2)C(=O)N[C@@H](Cc2ccccc2)C(=O)[C@@]2(C)CO2)cc1                  2.89

[Q] // fetch log10 of IC50 given entry CC(C)C[C@H](NC(=O)CN1CCCCCC1)C(=O)N[C@@H](Cc1ccccc1)C(=O)N[C@@H](Cc1ccccc1)C(=O)[C@@]1(C)CO1
[A] 1.59

[Q] // fetch log10 of IC50 given entry CC1=C(C(=O)N[C@H](C)C(=O)N[C@@H](Cc2c[nH]c3ccccc23)C(=O)N[C@@H](Cc2ccccc2)C(=O)[C@@]2(C)CO2)Cc2ccccc21
[A] 3.22

[Q] // fetch log10 of IC50 given entry COc1ccc([C@@H](O)[C@H](NC(=O)[C@H](C)NC(=O)CN2CCOCC2)C(=O)N[C@@H](CC2=CCCC2)C(=O)[C@@]2(C)CO2)cc1
[A] 2.84

[Q] // fetch log10 of IC50 given entry CC1=C(C(=O)N[C@@H](C)C(=O)N[C@@H](Cc2c[nH]c3ccccc23)C(=O)N[C@@H](Cc2ccccc2)C(=O)[C@@]2(C)CO2)Cc2ccccc21
[A] 1.73

[Q] // fetch log10 of IC50 given entry Cc1ccc(CC[C@H](NC(=O)[C@H](Cc2ccccc2)NC(=O)[C@H](CC(C)C)NC(=O)CN2CCCCCC2)C(=O)[C@@]2(C)CO2)cc1
[A] 2.69

Reference source: ChEMBL document CHEMBL4411269
